assay: Inhibition of SARS CoV-2 3C like protease expressed in HEK293T cells transfected with pGlo-VRLQS incubated for 6 hrs by firefly/renilla luciferase reporter assay; type: cell-based; conditions: Severe acute respiratory syndrome coronavirus 2, HEK-293T
Rule for this label: 1 means EC50 is less than 3 µM; -1 means EC50 is at least 3 µM.

{"molecule": "CC(C)C[C@H](NC(=O)OC(c1ccccc1)C1CCC(F)(F)CC1)C(=O)N[C@@H](C[C@@H]1CCNC1=O)C(O)S(=O)(=O)O (stereo not given in full)", "category": 1}
{"molecule": "CC(C)C[C@H](NC(=O)OCc1cccc(F)c1)C(=O)N[C@@H](C[C@@H]1CCNC1=O)C(O)S(=O)(=O)O (stereo not given in full)", "category": -1}
{"molecule": "CC(C)C[C@H](NC(=O)OCc1cccc(F)c1)C(=O)N[C@H](C=O)C[C@@H]1CCNC1=O", "category": -1}
{"molecule": "CC(C)C[C@H](NC(=O)OCc1c(F)c(F)c(F)c(F)c1F)C(=O)N[C@H](C=O)C[C@@H]1CCNC1=O", "category": -1}
{"molecule": "CCCC[C@H]1CC[C@H](OC(=O)N[C@@H](CC(C)C)C(=O)N[C@@H](C[C@@H]2CCNC2=O)C(O)S(=O)(=O)O)CC1 (stereo not given in full)", "category": -1}
{"molecule": "CC(C)C[C@H](NC(=O)OC(c1ccccc1)C1CCC(F)(F)CC1)C(=O)N[C@H](C=O)C[C@@H]1CCNC1=O (stereo not given in full)", "category": 1}
{"molecule": "CCC[C@H]1CC[C@H](COC(=O)N[C@@H](CC(C)C)C(=O)N[C@@H](C[C@@H]2CCNC2=O)C(O)S(=O)(=O)O)CC1 (stereo not given in full)", "category": -1}
{"molecule": "CC(C)C[C@H](NC(=O)OCc1c(F)c(F)c(F)c(F)c1F)C(=O)N[C@@H](C[C@@H]1CCNC1=O)C(O)S(=O)(=O)O (stereo not given in full)", "category": -1}
{"molecule": "CCCC[C@H]1CC[C@H](OC(=O)N[C@@H](CC(C)C)C(=O)N[C@H](C=O)C[C@@H]2CCNC2=O)CC1", "category": -1}
{"molecule": "CC(C)C[C@H](NC(=O)OC1CCC(C)(C)CC1)C(=O)N[C@H](C=O)C[C@@H]1CCNC1=O", "category": -1}

Just wondering, is EC50 of CC(C)C[C@H](NC(=O)OC1CCC(C)(C)CC1)C(=O)N[C@@H](C[C@@H]1CCNC1=O)C(O)S(=O)(=O)O (stereo not given in full) below 3 µM?
1

In the record for CCCC(OC(=O)N[C@@H](CC(C)C)C(=O)N[C@@H](C[C@@H]1CCNC1=O)C(O)S(=O)(=O)O)c1ccccc1 (stereo not given in full) , is EC50 less than 3 µM?
-1

Is EC50 strictly under 3 µM for the entry CC(C)C[C@H](NC(=O)OC(Cc1ccccc1)C1CCC(F)(F)CC1)C(=O)N[C@@H](C[C@@H]1CCNC1=O)C(O)S(=O)(=O)O (stereo not given in full) ?
-1

Take the molecule CCCC(OC(=O)N[C@@H](CC(C)C)C(=O)N[C@H](C=O)C[C@@H]1CCNC1=O)c1ccccc1 (stereo not given in full) and say whether its EC50 is less than 3 µM.
1
